# target-or-test-system: human vasopressin V1a receptor subtype (Homo sapiens, UniProt P37288)
# Construct: host or cells: CHO cells; pZeoSV vector for the Thibonnier line
# Sequence (P37288 whole entry): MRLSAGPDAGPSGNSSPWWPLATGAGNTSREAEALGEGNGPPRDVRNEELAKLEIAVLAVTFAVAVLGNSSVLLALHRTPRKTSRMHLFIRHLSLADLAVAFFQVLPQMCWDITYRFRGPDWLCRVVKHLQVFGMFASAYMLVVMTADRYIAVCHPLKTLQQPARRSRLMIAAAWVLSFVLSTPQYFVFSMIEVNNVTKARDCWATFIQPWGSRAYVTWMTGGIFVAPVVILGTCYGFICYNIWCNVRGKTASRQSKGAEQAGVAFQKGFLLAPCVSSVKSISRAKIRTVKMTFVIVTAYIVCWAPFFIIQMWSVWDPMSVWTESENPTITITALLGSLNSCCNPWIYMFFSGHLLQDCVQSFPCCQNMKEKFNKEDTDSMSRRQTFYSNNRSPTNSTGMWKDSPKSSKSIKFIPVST
# assay-remarks: Vasopressin binding in CHO cell membranes expressing human vasopressin V1a subtype receptors ([3H]Manning ligand radioligand binding)
# stated-conditions: @ 100 nM
# Source text: Vasopressin Binding in Chinese Hamster Ovary Cell Membranes Expressing Human Vasopressin V1a Subtype Receptors Chinese hamster ovary cells (CHO cells) stably transfected with the human vasopressin V1a subtype receptors were either obtained from BioSignal Inc., 1744 rue Williams, Montreal, Quebec, Canada or obtained from M. Thibonnier, Case Western Reserve University School of Medicine, Cleveland, Ohio. A. Passaging and Amplification of Cells […]
For each record, write down the corresponding inhibition at 0.1 µM.
Kindly provide the numeric value in % only, without the unit symbol.

Q: Can you share its inhibition at 0.1 µM? I mean this compound: Cc1cc(C(=O)N2Cc3ccc(C(=O)N4CCN(CCO)CC4)n3Cc3ccccc32)ccc1-c1ccccc1C(F)(F)F
Ans: 7

Q: inhibition at 0.1 µM lookup needed for COc1cc(C(=O)N2Cc3ccc(C(=O)N4CCN(CCO)CC4)n3Cc3ccccc32)ccc1-c1cccc2ccccc12 , thanks.
Ans: 12

Q: # input compound: COc1cc(C(=O)N2Cc3ccc(C(=O)N4CCN(CCO)CC4)n3Cc3ccccc32)ccc1-n1c(C)ccc1C ; wanted: its inhibition at 0.1 µM
Ans: 7

Q: inhibition at 0.1 µM lookup needed for COc1cccc(-c2ccc(C(=O)N3Cc4ccc(C(=O)N5CCN(CCO)CC5)n4Cc4ccccc43)cc2C)c1 , thanks.
Ans: 17

Q: Any idea what inhibition at 0.1 µM was measured for COc1cc2c(cc1OC)N(C(=O)c1ccc(-c3ccccc3OC)c(C)c1)Cc1ccc(C(=O)N(C)C[C@H](O)[C@@H](O)[C@H](O)[C@H](O)CO)n1C2 ?
Ans: 6

Q: I would be grateful if you could share the reported inhibition at 0.1 µM for COc1cc(C(=O)N2Cc3ccc(C(=O)N4CCN(CCO)CC4)n3Cc3ccccc32)ccc1-c1ccccc1C .
Ans: 49

Q: Consider the compound shown here: COc1cccc(-c2ccc(C(=O)N3Cc4ccc(C(=O)N5CCN(CCO)CC5)n4Cc4ccccc43)cc2OC)c1 What is its recorded inhibition at 0.1 µM?
Ans: 52

Q: Endpoint output: inhibition at 0.1 µM of Cc1ccccc1-c1ccc(C(=O)N2Cc3ccc(C(=O)N4CCN(CCO)CC4)n3Cc3ccccc32)cc1 . Value?
Ans: 57

Q: # lookup: inhibition at 0.1 µM of O=C(c1ccc2n1Cc1ccccc1N(C(=O)c1ccc(-c3cccc4ccccc34)cc1Cl)C2)N1CCN(CCO)CC1
Ans: 5

Q: Given COc1cccc(-c2cc(OC)c(C(=O)N3Cc4ccc(C(=O)N5CCN(CCO)CC5)n4Cc4ccccc43)cc2Cl)c1 , state its recorded inhibition at 0.1 µM.
Ans: 1

Q: Item under review: Cc1cc(C(=O)N2Cc3ccc(C(=O)NC(CO)(CO)CO)n3Cc3ccccc32)ccc1-c1ccccc1C(F)(F)F . Reported inhibition at 0.1 µM?
Ans: 7

Q: Return reported inhibition at 0.1 µM; argument: COc1ccccc1-c1ccc(C(=O)N2Cc3ccc(C(=O)N4CCN(CCO)CC4)n3Cc3ccccc32)cc1C
Ans: 13

Q: Would you kindly share the measured inhibition at 0.1 µM for COc1ccccc1-c1ccc(C(=O)N2Cc3ccc(C(=O)N4CCN(CCO)CC4)n3Cc3ccccc32)cc1OC ?
Ans: 1

Q: For the compound COc1ccccc1-c1ccc(C(=O)N2Cc3ccc(C(=O)N(C)C[C@H](O)CO)n3Cc3ccccc32)cc1C (single isomer, unassigned) , what inhibition at 0.1 µM is on record?
Ans: 59

Q: Reported inhibition at 0.1 µM, compound COc1ccccc1-c1ccc(C(=O)N2Cc3ccc(C(=O)N(C)C[C@@H](O)CO)n3Cc3ccccc32)cc1C (single isomer, unassigned) : ____
Ans: 68

Q: What value of inhibition at 0.1 µM has been recorded for this entry: COc1cc2c(cc1OC)N(C(=O)c1ccc(-c3ccccc3C(F)(F)F)c(C)c1)Cc1ccc(C(=O)N(CCO)CCO)n1C2
Ans: 1

Q: # inhibition at 0.1 µM lookup, item COc1cc2c(cc1OC)N(C(=O)c1ccc(-c3ccccc3C(F)(F)F)c(C)c1)Cc1ccc(C(=O)N(C)CC(O)CO)n1C2 (centres unmarked)
Ans: 0

Q: Quick one: inhibition at 0.1 µM for COc1ccccc1-c1ccc(C(=O)N2Cc3ccc(C(=O)N4CCN(CCO)CC4)n3Cc3ccccc32)cc1 ?
Ans: 12

Q: Using the record for Cc1ccccc1-c1ccc(C(=O)N2Cc3ccc(C(=O)N4CCN(CCO)CC4)n3Cc3ccccc32)cc1C , report its inhibition at 0.1 µM.
Ans: 53

Q: State the recorded inhibition at 0.1 µM for this entry: COCCN1CCN(C(=O)c2ccc3n2Cc2ccccc2N(C(=O)c2ccc(-c4ccccc4C(F)(F)F)c(C)c2)C3)CC1
Ans: -2
